Entries annotated with measured Fluorescence λmax em
test: Fluorescence excitation/emission spectroscopy and relative quantum yield; format: physicochemical; settings: DMF, 0.1 mM, excitation at 280 nm; 7-MC in presence of 10 mM DTT
Give your result in nm as a bare value.

Task: Which value of Fluorescence λmax em has been reported for "Cc1cc(=O)oc2cc(S[C@@H]3O[C@H](C)[C@H](O)[C@H](O)[C@H]3O)ccc12" in the records?
Result: 386

Task: For the molecule shown here, "Cc1cc(=O)oc2cc(S[C@@H]3O[C@H](CO)[C@@H](O)[C@H](O)[C@H]3O)ccc12" , give the reported Fluorescence λmax em.
Result: 386

Task: Which Fluorescence λmax em reading was recorded for the molecule "Cc1cc(=O)oc2cc(S[C@@H]3O[C@H](C(=O)O)[C@@H](O)[C@H](O)[C@H]3O)ccc12" ?
Result: 390

Task: Look up Fluorescence λmax em for this molecule: Cc1cc(=O)oc2cc(O)ccc12 [Compound 4-MUB, 4-methylumbelliferone, reference compound]
Result: 380

Task: Consider the molecule "Cc1cc(=O)oc2cc(S[C@@H]3O[C@H](CO)[C@H](O)[C@H](O)[C@H]3O)ccc12" and give its measured Fluorescence λmax em.
Result: 388

Next:
Task: What value of Fluorescence λmax em has been recorded for this entry: Cc1cc(=O)oc2cc(S)ccc12 [Compound 7-MC, 7-mercapto-4-methylcoumarin, reference compound]
Result: 392

Task: I'd like to know its Fluorescence λmax em. The molecule in question is "Cc1cc(=O)oc2cc(S[C@@H]3OC[C@@H](O)[C@H](O)[C@H]3O)ccc12"
Result: 386

Task: For the molecule shown here, "Cc1cc(=O)oc2cc(S[C@H]3O[C@H](CO)[C@H](O)[C@H](O)[C@H]3O)ccc12" , give the reported Fluorescence λmax em.
Result: 388

* * *

assay: Fluorescence excitation/emission spectroscopy and relative quantum yield; format: physicochemical; details: PBS pH 7.4, 0.1 mM, emission at 420 nm; 7-MC in presence of 10 mM DTT
measured.metric: Fluorescence λmax ex (nm)
Give a bare numeral; the unit nm is implied.

Task: Could you share which Fluorescence λmax ex value was measured for "Cc1cc(=O)oc2cc(S[C@@H]3O[C@H](C(=O)O)[C@@H](O)[C@H](O)[C@H]3O)ccc12" ?
Result: 332

Task: What value of Fluorescence λmax ex has been reported for the following compound? "Cc1cc(=O)oc2cc(S[C@@H]3O[C@H](CO)[C@H](O)[C@H](O)[C@H]3O)ccc12"
Result: 332

Task: Field request: Fluorescence λmax ex | item: "Cc1cc(=O)oc2cc(S[C@@H]3O[C@H](C)[C@H](O)[C@H](O)[C@H]3O)ccc12"
Result: 326

Task: What value of measured Fluorescence λmax ex is listed for "Cc1cc(=O)oc2cc(S[C@@H]3O[C@H](CO)[C@@H](O)[C@H](O)[C@H]3O)ccc12" ?
Result: 332

Task: Give its Fluorescence λmax ex value. Item: "Cc1cc(=O)oc2cc(S[C@@H]3OC[C@@H](O)[C@H](O)[C@H]3O)ccc12"
Result: 326

***
Task: What value of Fluorescence λmax ex has been recorded for this entry: Cc1cc(=O)oc2cc(S)ccc12 [Compound 7-MC, 7-mercapto-4-methylcoumarin, reference compound]
Result: 321

Task: # get_value(readout='Fluorescence λmax ex', item= Cc1cc(=O)oc2cc(O)ccc12 [Compound 4-MUB, 4-methylumbelliferone, reference compound] )
Result: 333

Task: Given "Cc1cc(=O)oc2cc(S[C@H]3O[C@H](CO)[C@H](O)[C@H](O)[C@H]3O)ccc12" , state its recorded Fluorescence λmax ex.
Result: 332
